Molecular target: T1, recombinant human CD63 second extracellular domain (Ala 103-Val 203) fused with a polyhistidine tag at the … (human, UniProt P08962 103-203)
T1 construct: range 103-203; Bought from Creative BioMart; also called human His-tagged CD63; soluble CD63
T1 sequence (looked up): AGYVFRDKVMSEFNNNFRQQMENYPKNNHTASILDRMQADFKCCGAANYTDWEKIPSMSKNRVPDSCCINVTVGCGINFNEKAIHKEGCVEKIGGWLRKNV
Assay: BLI (Octet HTX), IgG on anti-human Fc sensors, His-tagged CD63 as analyte, 30 C
Examples of binders with documented koff follow.
# value in s⁻¹; strip the unit string

BINDER: IgG1-CD63 affinity variant Y121H (antibody, V domains shown, As m1 with one histidine substitution) VH: EVQLQQSGPELVKPGASVKMSCKASGYTFTSYVMHWVRQTPGQGLEWIGYITPYNDGTKYNEKFKGKATLTSDKSSSTAYMELSSLTSEDSAVYYCVGGDNHYYAMDYWGQGTSVTVSA VL: NIMVTQSPSSLAVSAGEKVTMSCKSSQSVLYSSNQKNYLAWYQQKPGQSPKLLIYWASTRVSGVPDRFTGSGSGTDFTLTISRVQAEDLAVYYCHQYFSSFTFGSGTKLEIKR
UNITS: s⁻¹
koff: 0.0014

BINDER: anti-CD63-LN54H (antibody, V domains shown) VH: EVQLQQSGPELVKPGASVKMSCKASGYTFTSYVMHWVRQTPGQGLEWIGYITPYNDGTKYNEKFKGKATLTSDKSSSTAYMELSSLTSEDSAVYYCVGGDNYYYAMDYWGQGTSVTVSA VL: NIMVTQSPSSLAVSAGEKVTMSCKSSQSVLYSSHQKNYLAWYQQKPGQSPKLLIYWASTRVSGVPDRFTGSGSGTDFTLTISRVQAEDLAVYYCHQYFSSFTFGSGTKLEIKR
UNITS: s⁻¹
koff: 0.00039

Alright, here's another binder for you.
query: Quote koff reported for IgG1-CD63 affinity variant T71H (antibody, V domains shown) VH: EVQLQQSGPELVKPGASVKMSCKASGYTFTSYVMHWVRQTPGQGLEWIGYIHPYNDGTKYNEKFKGKATLTSDKSSSTAYMELSSLTSEDSAVYYCVGGDNYYYAMDYWGQGTSVTVSA VL: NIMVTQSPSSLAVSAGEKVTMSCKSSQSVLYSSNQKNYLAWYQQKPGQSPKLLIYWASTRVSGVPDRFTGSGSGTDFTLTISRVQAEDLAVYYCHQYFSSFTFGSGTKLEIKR please.
result: 0.0011
